# Tested on: Laminin 421/521
# method_description: Phage display library screening (Example 2), NEB laminin-binding peptides
# Set-up: species or system human
# condition_parameters: Laminin 421/521, not 211 and 411; combined unique sequence count, Python/R script analysis

- substance: "CNHLTQKLC (Laminin 421/521-binding peptide)"
  Count: 45
- substance: "IPVGERK (Laminin 421/521-binding peptide)"
  Count: 124
- substance: "KALGYSLVGGEW (Laminin 421/521-binding peptide)"
  Count: 134
- substance: "GGWQSLWDKPEH (Laminin 421/521-binding peptide)"
  Count: 31
- substance: "QALRTNYSPLNS (Laminin 421/521-binding peptide)"
  Count: 32
- substance: "CPMHQSKTC (Laminin 421/521-binding peptide)"
  Count: 28
- substance: "EGHVWSEYTWGT (Human MPZ-binding peptide)"
  Count: 50
- substance: "TLKAGTRANDGV (Laminin 421/521-binding peptide)"
  Count: 32
- substance: "DGANMENIAPAN"
  Count: 27
- substance: "LARSSIMAANNV (Laminin 421/521-binding peptide)"
  Count: 42
- substance: "GSLDMGNNKQPV (Laminin 421/521-binding peptide)"
  Count: 62

###

# target: Human Nidogen-2 (Homo sapiens, UniProt Q14112)
# Construct: purchased Novus NBP2-10365
# Sequence (Q14112 31-1375): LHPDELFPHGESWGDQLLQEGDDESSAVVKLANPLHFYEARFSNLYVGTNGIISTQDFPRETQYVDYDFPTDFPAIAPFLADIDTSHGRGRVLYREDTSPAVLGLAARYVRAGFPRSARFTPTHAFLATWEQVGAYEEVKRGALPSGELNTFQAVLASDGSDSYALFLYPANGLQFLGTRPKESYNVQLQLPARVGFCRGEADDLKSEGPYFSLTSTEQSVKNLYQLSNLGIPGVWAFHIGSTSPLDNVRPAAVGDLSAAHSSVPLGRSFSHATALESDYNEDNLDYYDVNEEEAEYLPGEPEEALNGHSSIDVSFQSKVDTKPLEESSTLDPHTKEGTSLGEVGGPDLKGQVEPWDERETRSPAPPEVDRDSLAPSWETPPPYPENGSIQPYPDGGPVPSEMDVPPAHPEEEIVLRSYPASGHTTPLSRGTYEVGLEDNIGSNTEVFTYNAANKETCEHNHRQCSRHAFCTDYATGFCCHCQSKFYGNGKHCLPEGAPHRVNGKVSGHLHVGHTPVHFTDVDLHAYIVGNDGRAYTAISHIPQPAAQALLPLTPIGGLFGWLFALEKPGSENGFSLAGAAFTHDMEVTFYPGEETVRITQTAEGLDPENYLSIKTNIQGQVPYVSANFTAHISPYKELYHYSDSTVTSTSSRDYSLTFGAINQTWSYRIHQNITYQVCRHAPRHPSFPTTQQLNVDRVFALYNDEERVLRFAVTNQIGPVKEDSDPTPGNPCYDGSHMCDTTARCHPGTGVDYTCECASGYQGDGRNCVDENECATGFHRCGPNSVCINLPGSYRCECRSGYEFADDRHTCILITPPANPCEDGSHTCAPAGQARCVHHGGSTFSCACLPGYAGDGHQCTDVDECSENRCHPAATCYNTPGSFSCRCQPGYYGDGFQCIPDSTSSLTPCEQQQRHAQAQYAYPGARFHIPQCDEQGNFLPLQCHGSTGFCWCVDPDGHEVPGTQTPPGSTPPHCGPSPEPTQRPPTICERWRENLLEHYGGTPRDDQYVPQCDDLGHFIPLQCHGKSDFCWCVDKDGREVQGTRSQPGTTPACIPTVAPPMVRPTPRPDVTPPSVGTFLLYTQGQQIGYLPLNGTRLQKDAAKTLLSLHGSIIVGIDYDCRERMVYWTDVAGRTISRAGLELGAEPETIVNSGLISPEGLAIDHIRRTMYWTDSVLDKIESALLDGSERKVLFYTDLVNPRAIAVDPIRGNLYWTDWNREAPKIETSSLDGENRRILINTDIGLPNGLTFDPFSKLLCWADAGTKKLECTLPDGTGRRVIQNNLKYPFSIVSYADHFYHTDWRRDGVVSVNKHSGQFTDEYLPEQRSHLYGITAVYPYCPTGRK
# method_description: Phage display library screening (Example 1, Power BI analysis), binding to Human Nidogen-2
# condition_parameters: R3 Nidogen-2, NextGen sequencing count of phage sequences distinct for this target
The following substances are listed with their measured Count values.

- substance: "KAIHPMRG (R3 Nidogen-2-binding peptide)"
  target: "Human Nidogen-2 (Homo sapiens, UniProt Q14112)"
  Count: 11
- substance: "ACGEGEADVC (R3 Nidogen-2-binding peptide)"
  target: "Human Nidogen-2 (Homo sapiens, UniProt Q14112)"
  Count: 26
- substance: "ACTVHKWDNC (R3 Nidogen-2-binding peptide)"
  target: "Human Nidogen-2 (Homo sapiens, UniProt Q14112)"
  Count: 11
- substance: "ACPENKSKHC (R3 Nidogen-2-binding peptide)"
  target: "Human Nidogen-2 (Homo sapiens, UniProt Q14112)"
  Count: 13
- substance: "ACEPRSLANC (R3 Nidogen-2-binding peptide)"
  target: "Human Nidogen-2 (Homo sapiens, UniProt Q14112)"
  Count: 11
- substance: "GYWRNAL (R3 Nidogen-2-binding peptide)"
  target: "Human Nidogen-2 (Homo sapiens, UniProt Q14112)"
  Count: 11
